The origin of these recorded values is patent US9839642B2.

Target: IMP-1 (Serratia marcescens, UniProt P52699)
Sequence (P52699 19-246, looked up, species assumed): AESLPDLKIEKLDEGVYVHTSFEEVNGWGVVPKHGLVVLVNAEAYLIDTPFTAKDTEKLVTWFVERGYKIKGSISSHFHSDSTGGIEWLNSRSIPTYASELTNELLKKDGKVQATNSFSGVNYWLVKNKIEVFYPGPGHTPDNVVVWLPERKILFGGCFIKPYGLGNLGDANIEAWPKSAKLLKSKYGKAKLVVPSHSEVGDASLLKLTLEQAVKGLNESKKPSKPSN
Assay: Enzyme activity: determination of IC50, fluorescence assay with CCF2-FA substrate
Format: biochemical
Conditions: enzyme 2 pM, CCF2-FA 1.25 μM, 2 hours at 25° C.; read-out: IMP1 IC50
pIC50: −log10 of the molar value.
List of pIC50 values.
experimental.readout: pIC50

[[record]]
item_smiles = "O=C(O)[C@@H](C1CCOCC1)[C@H](Cc1ccccc1)c1nnn[nH]1"
quantitative_result = 5.98

[[record]]
item_smiles = "CCC[C@H](C(=O)O)[C@H](Cc1ccc(-c2ccc(N)nc2)cc1)c1nn[nH]n1"
quantitative_result = 7.47

[[record]]
item_smiles = "CCC[C@H](C(=O)O)[C@H](Cc1ccc(-c2ccc(CN)cc2)nc1)c1nnn[nH]1"
quantitative_result = 5.51

[[record]]
item_smiles = "CCC[C@H](C(=O)O)[C@H](Cc1ccc(-c2ccc(C(C)(C)O)nc2)cc1)c1nn[nH]n1"
quantitative_result = 6.92

[[record]]
item_smiles = "CCC[C@H](C(=O)O)[C@H](Cc1ccc(-c2ccncc2)cc1)c1nn[nH]n1"
quantitative_result = 7.12

[[record]]
item_smiles = "O=C(O)[C@H](CCC1CCCCC1)[C@@H](Cc1ccccc1)c1nnn[nH]1"
quantitative_result = 6.39

[[record]]
item_smiles = "CCC[C@H](C(=O)O)[C@H](Cc1ccc(-c2nnn[nH]2)cc1)c1nn[nH]n1"
quantitative_result = 6.19

[[record]]
item_smiles = "CC(C)C[C@H](C(=O)O)[C@H](Cc1ccc(NCCO)nc1)c1nnn[nH]1"
quantitative_result = 6.64

